# credit: patent US20240041042A1

system: Avena fatua (AVEFA); test: Post-emergence herbicidal action against AVEFA; format: in vivo; conditions: 320 g/ha, visual rating about 3 weeks after treatment
Quick reference for Post-emergence action against AVEFA in % among some compounds
Respond numerically; units are % and should not be typed.

INSERT INTO measurements (compound, readout_number) VALUES
  ('C[C@@H](Oc1nn(-c2ccccn2)c(-c2ccc(F)nc2)c1Cl)C(=O)NCC(=O)O [Example I-338]', 90),
  ('C[C@@H](Oc1nn(-c2ncccc2F)c(-c2cncc(F)c2)c1Cl)C(=O)O [Example I-165]', 90),
  ('COC(=O)[C@@H](C)Oc1nn(-c2ccccn2)c(-c2ccc(Cl)nc2)c1Br [Example I-242]', 80),
  ('O=C(O)COc1nn(-c2nc(F)ccc2F)c(-c2ccc(F)nc2)c1Cl [Example I-337]', 80);

Q. For the compound O=C(O)COc1nn(-c2nc(F)ccc2F)c(-c2ccc(F)nc2)c1Br [Example I-334] , what Post-emergence action against AVEFA in % is on record?
A. 80

Q. How about C[C@@H](Oc1nn(-c2ncccc2F)c(-c2cncc(F)c2)c1C1CC1)C(=O)O [Example I-166] ?
A. 90

Q. // same read-out, input: COC(=O)COc1nn(-c2ncccc2F)c(-c2ccc(F)nc2)c1Cl [Example I-304]
A. 90

Q. Try this compound next: Cc1cccnc1-n1nc(OCC(=O)O)c(Cl)c1-c1cncc(F)c1 [Example I-182]
A. 90

---

tested on: Oryza sativa (ORYSA); type: in vivo; details: crop plant compatibility, 80 g/ha, effect in comparison to untreated controls
quantity_name: Post-emergence action against ORYSA in %
Number first, unit second: that is the form wanted.

These recorded examples may help you get a feel for the data.
INSERT INTO measurements (compound, target_entity, quantity_name, result) VALUES
  ('Cc1ncccc1-n1nc(OCC(=O)OCC2CCCO2)c(Br)c1-c1cncc(F)c1 (stereo not shown)', 'Oryza sativa (ORYSA)', 'Post-emergence action against ORYSA in %', '0%'),
  ('Cc1ncccc1-n1nc(OCC(=O)O)c(Cl)c1-c1cncc(F)c1', 'Oryza sativa (ORYSA)', 'Post-emergence action against ORYSA in %', '0%'),
  ('CN(C)S(=O)(=O)NC(=O)COc1nn(-c2ncccc2F)c(-c2ccc(F)nc2)c1Br', 'Oryza sativa (ORYSA)', 'Post-emergence action against ORYSA in %', '0%'),
  ('C=CCNC(=O)COc1nn(-c2ncccc2F)c(-c2ccc(F)nc2)c1Br', 'Oryza sativa (ORYSA)', 'Post-emergence action against ORYSA in %', '0%'),
  ('CCOC(=O)CN(C)S(=O)(=O)NC(=O)COc1nn(-c2ccccn2)c(-c2ccc(F)nc2)c1Br', 'Oryza sativa (ORYSA)', 'Post-emergence action against ORYSA in %', '20%');

Q. GET /values?readout=Post-emergence action against ORYSA in %&item= CCOC(=O)COc1nn(-c2ncccc2F)c(-c2ccnc(F)c2)c1Br
A. 20%

Q. Can you check COC(=O)CCOC(=O)COc1nn(-c2ccccn2)c(-c2ccc(Cl)nc2)c1Br next?
A. 0%

Q. Please give the result for O=C(O)COc1nn(-c2ncccc2F)c(-c2cncc(F)c2)c1Cl too.
A. 10%

Q. Thanks! And O=C(O)COc1nn(-c2nc(F)ccc2F)c(-c2cncc(F)c2)c1Cl ?
A. 10%

Q. Moving on to COC(=O)CNC(=O)CSc1nn(-c2ccccn2)c(-c2cncnc2)c1Br
A. 0%

---

System: Lolium rigidum (LOLRI)
Assay: Pre-emergence herbicidal action against LOLRI
Format: in vivo
Conditions: dosage 320 g/ha
Description: Seeds of monocotyledonous and dicotyledonous weed plants and crop plants are placed in plastic or organic planting pots and covered with soil. […] After about 3 weeks, the effect of the preparations is scored visually in comparison with untreated controls as percentages. […]
quantity_name: Pre-emergence action against LOLRI in %
Kindly format the answer as number then unit.

INSERT INTO measurements (compound, result) VALUES
  ('COC(=O)CCOC(=O)COc1nn(-c2cccc(C)n2)c(-c2ccc(F)nc2)c1Cl [Example I-276]', '100%'),
  ('COC(=O)[C@@H](C)NC(=O)COc1nn(-c2ccccn2)c(-c2ccnc(F)c2)c1Br [Example I-59]', '100%'),
  ('COC(=O)COc1nn(-c2nc(F)ccc2F)c(-c2cncc(F)c2)c1C1CC1 [Example I-164]', '100%'),
  ('CCOC(=O)[C@@H](C)Oc1nn(-c2nc(F)ccc2F)c(-c2cncc(F)c2)c1Cl [Example I-208]', '100%'),
  ('C[C@@H](Oc1nn(-c2ccccn2)c(-c2ccc(Cl)nc2)c1Cl)C(=O)O [Example I-238]', '90%'),
  ('C[C@@H](Oc1nn(-c2nc(F)ccc2F)c(-c2ccc(F)nc2)c1Br)C(=O)O [Example I-333]', '100%'),
  ('COC(=O)CCOC(=O)COc1nn(-c2ccccn2)c(-c2ccc(F)nc2)c1Br [Example I-247]', '100%');

Q. Query (compound): O=C(O)COc1nn(-c2ccccn2)c(-c2ccc(Cl)nc2)c1Cl [Example I-236] ; field requested: Pre-emergence action against LOLRI in %
A. 90%

---

test system: Brassica napus (BRSNW); format: in vivo; conditions: 320 g/ha, crop plant compatibility, in comparison to untreated controls
quantity_name: Pre-emergence action against BRSNW in % (%)
Return type: number; implicit unit %.

INSERT INTO measurements (smiles_entry, target_entity, quantity_name, readout_number) VALUES
  ('COC(=O)COc1nn(-c2ncccc2OC)c(-c2ccc(F)nc2)c1Cl', 'Brassica napus (BRSNW)', 'Pre-emergence action against BRSNW in %', 20);

Q. Can you look up the measured Pre-emergence action against BRSNW in % of CCOC(=O)C1CCN(C(=O)COc2nn(-c3ccccn3)c(-c3ccc(F)nc3)c2Br)CC1 for me?
A. 10

Q. Entry CCOC(=O)COc1nn(-c2ccc(Br)c(C)n2)c(-c2cncc(F)c2)c1Br please
A. 10

Q. Another: CCOC(=O)COc1nn(-c2ncccc2C(F)(F)F)c(-c2ccc(F)nc2)c1Br
A. 0

Q. What about COC(=O)CN(C)C(=O)COc1nn(-c2ccnc(Cl)c2)c(-c2ccc(F)nc2)c1Br ?
A. 20

Q. # iterate: COc1cccnc1-n1nc(OCC(=O)O)c(Br)c1-c1ccc(F)nc1
A. 20

Q. What would you report for CCOC(=O)CCNC(=O)CSc1nn(-c2ccccn2)c(-c2cncc(F)c2)c1Br ?
A. 20

Q. How about O=C(O)COc1nn(-c2ccnc(Cl)c2)c(-c2ccc(F)nc2)c1Br ?
A. 0

Q. Okay, and C[C@@H](Oc1nn(-c2ccc(F)cn2)c(-c2cncc(F)c2)c1Br)C(=O)O ?
A. 20

---

Tested on: Oryza sativa (ORYSA)
Type: in vivo
Conditions: crop plant compatibility, 80 g/ha, effect in comparison to untreated controls
Description: Seeds of monocotyledonous and dicotyledonous weeds and crop plants are placed in sandy loam in plastic or organic planting pots, covered with soil and cultivated in a greenhouse under controlled growth conditions. 2 to 3 weeks after sowing, the test plants are treated at the one-leaf stage. […]
The entries below are paired with their reported Post-emergence action against ORYSA in %.
Kindly provide the numeric value in % only, without the unit symbol.

INSERT INTO measurements (compound, target_entity, readout_number) VALUES
  ('CCOC(=O)[C@@H](C)Oc1nn(-c2ccccn2)c(-c2ccc(F)nc2)c1Br', 'Oryza sativa (ORYSA)', 20),
  ('CCOC(=O)C(C)Oc1nn(-c2ccccn2)c(-c2ccc(F)nc2)c1C(F)(F)F (centres unmarked)', 'Oryza sativa (ORYSA)', 10),
  ('COC(=O)[C@@H](C)Oc1nn(-c2ccccn2)c(-c2ccnc(F)c2)c1Cl', 'Oryza sativa (ORYSA)', 0);

Q. Return Post-emergence action against ORYSA in % measured with Oryza sativa (ORYSA) given this compound: COCCOC(=O)COc1nn(-c2cccc(C)n2)c(-c2ccc(F)nc2)c1Cl
A. 10

Q. Now consider CCOC(=O)COc1nn(-c2ccccn2)c(-c2ccc(F)nc2)c1I and answer again.
A. 0

Q. Likewise for CCOC(=O)C[S+]([O-])c1nn(-c2ccccn2)c(-c2cncc(F)c2)c1Cl (centres unmarked) ?
A. 0

Q. Now the compound O=C(O)CSc1nn(-c2ccccn2)c(-c2cncc(Cl)c2)c1Br
A. 0

Q. Repeat with O=C(O)COc1nn(-c2ccnc(Cl)c2)c(-c2ccc(F)nc2)c1Br
A. 0

Q. Then this compound: COC(=O)[C@@H](C)Oc1nn(-c2ncccc2F)c(-c2ccnc(F)c2)c1Br
A. 10

Q. Then what about the compound O=C(O)COc1nn(-c2ccccn2)c(-c2cncnc2)c1Br ?
A. 10

Q. Follow-up item: CCOC(=O)COc1nn(-c2ncccc2C(F)(F)F)c(-c2cncc(F)c2)c1Br
A. 20

Q. Please give the result for COC(=O)[C@@H](C)Oc1nn(-c2ccccn2)c(-c2ccc(Cl)nc2)c1Br too.
A. 0

Q. Record: COC(=O)CN(C)C(=O)COc1nn(-c2ccccn2)c(-c2ccc(F)nc2)c1Br
A. 0

Q. Moving on to COC(=O)COc1nn(-c2ncccc2Cl)c(-c2ccc(F)nc2)c1Br
A. 0

Q. // query: O=C(O)CNC(=O)COc1nn(-c2ccccn2)c(-c2ccc(F)nc2)c1Cl
A. 0

Q. Same question, CCOC(=O)COc1nn(-c2ncccc2Cl)c(-c2ccc(F)nc2)c1Br this time
A. 10

Q. Please answer likewise for CC(Oc1nn(-c2ccccn2)c(-c2ccc(F)nc2)c1C(F)(F)F)C(=O)O (centres unmarked)
A. 20
